test: Kinetic solubility by HPLC; type: physicochemical; conditions: kinetic from dmso stock, FaSSIF pH 6.5, 2% DMSO, room temperature, read-out: Kinetic Solubility Fassif pH6.5
solubility kinetic at 2 h values, listed per item
MEASURED QUANTITY: solubility kinetic at 2 h (µM)

* Nc1ncc(-c2ccc(C(=O)O)cc2)nc1-c1ccc(C(F)(F)F)cc1 | 178
* Nc1ncc(-c2ccc(C(=O)O)cc2)nc1-c1ccc(C(F)(F)F)nc1 | 199
* NC(=O)c1ccc(-c2cnc(N)c(-c3ccc(C(F)(F)F)cc3)n2)cc1 [Reference 1, reference compound] | 115

* * *

Quick reference: pIC50 of the listed items.
tested on: P. falciparum NF54; experiment: In vitro P. falciparum growth inhibition, sensitive NF54 strain; format: cell-based; details: Plasmodium falciparum, read-out: P. fal. NF54 IC50
pIC50: −log10 of the molar value.
MEASURED QUANTITY: pIC50

* Nc1ncc(-c2ccc(C(=O)O)cc2)nc1-c1ccc(C(F)(F)F)nc1 | 7.59
* NC(=O)c1ccc(-c2cnc(N)c(-c3ccc(C(F)(F)F)cc3)n2)cc1 [Reference 1, reference compound] | 7.89
* Nc1ncc(-c2ccc(C(=O)O)cc2)nc1-c1ccc(C(F)(F)F)cc1 | 7.48
